PROCEDURE_TEXT: Cellular viability qHTS for adrenocortical cancer (ACC) cell line NCI-H295R (AID 1963990); also: nearly all actives have a fitted effect of over 60% in size
CONDITION: CellTiter-Glo ATP luminescence, 48 h; series mostly up to 46.1 µM
Results filed as inconclusive are left out. The source made the active and inactive calls. Calls follow the shape of the dose curve; as a rule, active = well fitted cell-killing curve with a large enough effect; inconclusive = small, poorly fitted or top-dose-only effect; inactive = flat fitted curve, though single readings scatter.
Outcome codes: true (1) for active, false (0) for inactive

> print(dat)
                                    compound      group
 1  CC(=O)CC/C=C(\C)CC/C=C(\C)CC/C=C(\C)CCC=C(C)C  false (0)
 2  CC(O)Cn1cnc2c1c(=O)n(C)c(=O)n2C (stereo not given)  false (0)
 3  COc1cccc2nc(-c3cccs3)nc(NN3C(=O)C=C(C)C3=O)c12   true (1)
 4  CNC(=O)Cn1cc(-c2ccc3c(c2)C(F)CC32NC(=O)N(CC(=O)N(Cc3ccc(F)cc3)C(C)C(F)(F)F)C2=O)cn1 (stereo not given)  false (0)
 5                              NCCCCCC(=O)O  false (0)
 6  COc1cc2c(NC3CCN(CC4CCCCC4)CC3)nc(N3CCCN(C(C)C)CC3)nc2cc1OCCCN1CCCCC1   true (1)
 7  CCN(CCCCOC(=O)c1ccc(OC)c(OC)c1)C(C)Cc1ccc(OC)cc1 (stereo not given)  false (0)
 8    O=C(Oc1ccccc1)c1cccc(C(=O)Oc2ccccc2)c1  false (0)
 9  CO/N=C1\CN(c2nc3c(cc2F)c(=O)c(C(=O)O)cn3C2CC2)CC1CN (stereo not given)  false (0)
10   O=C(O)CCc1ccc(NCc2cccc(Oc3ccccc3)c2)cc1  false (0)

---

PROCEDURE_TEXT: Cellular viability qHTS for adrenocortical cancer (ACC) cell line NCI-H295R (AID 1963990); also: nearly all actives have a fitted effect of over 60% in size
CONDITION: CellTiter-Glo ATP luminescence, 48 h; series mostly up to 46.1 µM
Results filed as inconclusive are left out. Activity calls are given as the source filed them. Calls come from the whole dose curve; as a rule, active = well fitted cell-killing curve with a large enough effect; inconclusive = small, poorly fitted or top-dose-only effect; inactive = flat fitted curve, though single readings scatter.
Outcomes: Y (active), N (inactive)

> print(dat)
                                   compound  group
1        O=C(O)Cc1ccc2c(c1)C(=O)c1ccccc1CO2      N
2  CC(C)n1cnc2c(NCCc3ccc(O)cc3)nc(-c3csc4ccccc34)nc21      N
3  CCN(CC)C(=O)Nc1ccc(OCC(O)CNC(C)(C)C)c(C(C)=O)c1 (stereo not given)      N
4  Cc1cc(Nc2ncc(Cl)c(Nc3ccccc3S(=O)(=O)C(C)C)n2)c(OC(C)C)cc1C1CCNCC1      Y
5  Cc1ccsc1C(=CCCN1CCC[C@@H](C(=O)O)C1)c1sccc1C      N

---

PROCEDURE_TEXT: Quantitative highthroughput screen to assess conditional lethalithy of NOMO1 cells grown in RPMI1640 with untreated serum (RPMI+s) (AID 1963876); also: nearly all actives have a fitted effect of over 35% in size;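 as to viability: 100% = DMSO wells and 0% = empty wells without cells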
CONDITION: NOMO1 AML cells in RPMI+serum, CellTiter-Glo viability, 48 h; series mostly up to 45.8 µM
Results filed as inconclusive are left out. Active and inactive are the calls of the source. Calls follow the shape of the dose curve; as a rule, active = well fitted cell-killing curve with a large enough effect; inconclusive = small, poorly fitted or top-dose-only effect; inactive = flat fitted curve, though single readings scatter.
Possible outcomes: t = active, f = inactive

> print(dat)
                              line.notation  group
1  CN1CCN(c2ccc(C(=O)Nc3n[nH]c4ccc(Cc5cc(F)cc(F)c5)cc34)c(NC3CCOCC3)c2)CC1      t
2  NC(=O)c1cccc(-c2cccc(OC(=O)NC3CCCCC3)c2)c1      f
3  CC[C@H]1CN2CCc3cc(OC)c(OC)cc3[C@H]2C[C@@H]1C[C@@H]1NCCc2cc(OC)c(OC)cc21      t
4  CC(=O)N1CCN(c2ccc(OCc3nn(C)c(C)c3-c3cccc4c(CCCOc5cc(C)c(Cl)c(C)c5)c(C(=O)O)n(Cc5cccnc5)c34)cc2)CC1      f
5  CN[C@H]1CCc2cc(OC)c(OC)c(OC)c2-c2ccc(OC)c(=O)cc21      t
6  NC(=O)Nc1cc(-c2cccc(F)c2)sc1C(=O)N[C@H]1CCCNC1      t
7  NC(=O)c1cccc(-c2cc(Nc3ccc(OC(F)(F)F)cc3)ncn2)c1      f
8  O=c1[nH]nc(OCCCc2ccc(Cl)cc2)c(NCc2cccnc2)c1Br      t
9      O=C1c2cccc(O)c2C(=O)c2c(O)cc(CO)cc21      f
